The values you see were collected from PubChem BioAssay (NCATS).

experiment: Quantitative highthroughput screen to assess conditional lethalithy of P12 Ichikawa cells grown in Human Plasma-Like Medium with dialyzed fetal bovine serum (HPLM+ds) (AID 1963879); settings: ATP luminescence, 48 h; viability; series mostly up to 45.8 µM; also: nearly all actives have a fitted effect of over 35% in size; also: potency is read from the fitted curve at half-maximal effect
Results filed as inconclusive are left out. The source made the active and inactive calls. Calls follow the shape of the dose curve; as a rule, active = well fitted cell-killing curve with a large enough effect; inconclusive = small, poorly fitted or top-dose-only effect; inactive = flat fitted curve, though single readings scatter.
Measured quantity: Potency

[[record]]
compound = "CCc1cc(C(C)=NOCc2ccc(C3CCCCC3)c(C(F)(F)F)c2)ccc1CN1CC(C(=O)O)C1"
measured_quantity = "Potency"
recorded_measurement = "8.33 µM (active)"

[[record]]
compound = "CC(=O)SC[C@@H](C)C(=O)N1CCC[C@H]1C(=O)N[C@@H](Cc1ccccc1)C(=O)O"
measured_quantity = "Potency"
recorded_measurement = "inactive"

[[record]]
compound = "O=C(Nc1cccc(Nc2ncc(Br)c(NCCc3cnc[nH]3)n2)c1)N1CCCC1"
measured_quantity = "Potency"
recorded_measurement = "0.662 µM (active)"

[[record]]
compound = "O=C(OC1C[C@H]2CC[C@@H](C1)[N+]21CCCC1)C(O)(c1ccccc1)c1ccccc1 (stereo not given in full)"
measured_quantity = "Potency"
recorded_measurement = "inactive"

[[record]]
compound = "COc1ccc(-c2cc(=O)c3c(O)cc(O)cc3o2)cc1O"
measured_quantity = "Potency"
recorded_measurement = "inactive"

